target: S1P3 (Homo sapiens); experiment: Receptor binding assay, [33P]sphingosine 1-phosphate competition, S1P3; conditions: 384 well-plate; read-out: S1P3 binding IC50 (M) (384 well-plate)
Sequence (Q99500 whole entry, species assumed): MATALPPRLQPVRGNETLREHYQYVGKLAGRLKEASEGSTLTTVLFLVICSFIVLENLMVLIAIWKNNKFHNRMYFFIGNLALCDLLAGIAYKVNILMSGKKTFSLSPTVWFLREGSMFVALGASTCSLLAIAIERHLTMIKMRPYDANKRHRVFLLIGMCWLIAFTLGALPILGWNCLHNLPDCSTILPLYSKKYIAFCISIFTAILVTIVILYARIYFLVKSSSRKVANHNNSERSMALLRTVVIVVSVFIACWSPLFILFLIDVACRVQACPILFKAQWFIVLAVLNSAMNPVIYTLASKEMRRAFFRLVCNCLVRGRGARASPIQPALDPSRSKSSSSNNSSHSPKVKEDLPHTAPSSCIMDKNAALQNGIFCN
Where a name gives a salt, the structure may show the parent alone.
Answer each item with its documented IC50.
Your answer is read as M, so omit the unit and give the number.

State the recorded IC50 for this entry: COCc1cc(-c2nc(-c3cnc(NCCCC(=O)O)c(C)c3)no2)ccc1-c1ccccc1F [Example 55, hydrochloride salt]
3.39e-06

Give the measured IC50 of CC1CCCCN1c1ccc(-c2nc(-c3ccnc(CN(C)CCC(=O)O)c3)no2)cc1C(F)(F)F (stereo not drawn) .
4.68e-07

Reported IC50 for Cc1ccccc1-c1ccc(-c2nc(-c3ccc(CN(C)CC(=O)O)nc3)no2)cc1C(F)(F)F : what is it?
2.88e-06

Quick one: IC50 for COCc1cc(-c2nc(-c3cnc(NCCC(=O)O)c(Cl)c3)no2)ccc1-c1ccccc1Cl [Example 50, hydrochloride salt] ?
9.45e-06

Quick one: IC50 of COCc1cc(-c2nc(-c3ccnc(CN(C)CC(=O)O)c3)no2)ccc1-c1ccccc1C ?
1.08e-06

Find the recorded IC50 belonging to COCc1cc(-c2nc(-c3cnc(NCCC(=O)O)c(C)c3)no2)ccc1-c1ccccc1C [Example 58, hydrochloride salt] and report it.
5.26e-06

Given the molecule CC1CCCCN1c1ccc(-c2nc(-c3ccnc(CN(C)CC(=O)O)c3)no2)cc1C(F)(F)F (stereo not drawn) , what is its reported IC50?
1.38e-06

I have this molecule here, COCc1cc(-c2nc(-c3ccc(NCC(O)CO)nc3)no2)ccc1-c1ccccc1C (stereo not drawn) [Example 45, hydrochloride salt] , and I need its recorded IC50.
7.94e-06

Dear colleague, I am looking for the recorded IC50 of the following molecule: COCc1cc(-c2nc(-c3ccnc(NCC(=O)O)c3)no2)ccc1-c1ccccc1C [Example 11, hydrochloride salt]
2.97e-06
